experiment: Pharmacokinetics in SCID mice; format: in vivo; settings: 25 mg/kg IV bolus, concentration at the end of bolus administration
Please provide measured PK parameters Cinf for the entries that follow.
Your reply should be a number followed by the unit it is expressed in.

**Q:** Fill in: PK parameters Cinf of Cc1c(N(C(=O)c2cc(-c3cc4c(cc3C(=O)N3Cc5ccccc5C[C@H]3C)CN(C(=O)Cc3ccc(OCCN5CCSCC5)cc3)CC4)n(C)c2C)c2ccc(O)cc2)cc(C#N)n1C is ___
**A:** 17.3 µM

**Q:** Likewise for Cc1c(N(C(=O)c2cc(-c3cc4c(cc3C(=O)N3Cc5ccccc5C[C@H]3C)CN(C(=O)Cc3ccc(N5CCN(CC(F)(F)F)CC5)cc3)CC4)n(C)c2C)c2ccc(O)cc2)cc(C#N)n1C ?
**A:** 6.8 µM

**Q:** Likewise for Cc1c(N(C(=O)c2cc(-c3cc4c(cc3C(=O)N3Cc5ccccc5C[C@H]3C)CN(C(=O)Cc3ccc(OCCN5C[C@@H](C)O[C@@H](C)C5)cc3)CC4)n(C)c2C)c2ccc(O)cc2)cc(C#N)n1C ?
**A:** 26.5 µM

###

target: BCL2 D103Y (Homo sapiens, UniProt P10415, D103Y); assay: TR-FRET competitive binding assay, BCL2 D103Y; details: Ki determined from IC50, read-out: TR_FRET EKI_Bcl2 D103Y
For each record, check the reported Ki: if it is below 0.3 nM write True, else write False.

**Q:** Field: below-cutoff. Rule: recorded Ki strictly less than 0.3 nM. Subject: Cc1c(N(C(=O)c2cc(-c3cc4c(cc3C(=O)N3Cc5ccccc5C[C@H]3C)CN(C(=O)Cc3ccc(Oc5ccccc5)cc3)CC4)n(C)c2C)c2ccc(O)cc2)cc(C#N)n1C [Example 10]
**A:** False

**Q:** Likewise for Cc1c(N(C(=O)c2cc(-c3cc4c(cc3C(=O)N3Cc5ccccc5C[C@H]3CN3CCCCC3)CN(C(=O)Cc3ccc(Cl)cc3F)CC4)n(C)c2C)c2ccc(O)cc2)cc(C#N)n1C [Example 44] ?
**A:** False

**Q:** Likewise for Cc1c(C(=O)N(c2ccccc2)c2cnn(C)c2)cc(-c2cc3c(cc2C(=O)N2Cc4ccccc4C[C@H]2C)CN(C(=O)Cc2ccc(OCCC4CCN(C)CC4)cc2)CC3)n1C [Example 237] ?
**A:** True

**Q:** Likewise for Cc1c(C(=O)N(c2ccc(O)cc2)c2cnn(C(F)F)c2)cc(-c2cc3c(cc2C(=O)N2Cc4ccccc4C[C@H]2C)CN(C(=O)Cc2ccc(OCCN4CCOCC4)cc2F)CC3)n1C [Example 186] ?
**A:** True

**Q:** Likewise for Cc1c(N(C(=O)c2cc(-c3cc4c(cc3C(=O)N3Cc5ccccc5C[C@H]3C)CN(C(=O)Cc3ccc(CCN5CCOCC5)cc3)CC4)n(C)c2C)c2ccc(O)cc2)cc(C#N)n1C [Example 38] ?
**A:** False

###

target: BCL2 WT (Homo sapiens (Human), UniProt P10415); test: TR-FRET competitive binding assay, BCL2 WT; conditions: Ki determined from IC50, read-out: TR_FRET EKI_Bcl2 WT
Sequence (P10415 other isoform, or with tags, fused parts or gaps): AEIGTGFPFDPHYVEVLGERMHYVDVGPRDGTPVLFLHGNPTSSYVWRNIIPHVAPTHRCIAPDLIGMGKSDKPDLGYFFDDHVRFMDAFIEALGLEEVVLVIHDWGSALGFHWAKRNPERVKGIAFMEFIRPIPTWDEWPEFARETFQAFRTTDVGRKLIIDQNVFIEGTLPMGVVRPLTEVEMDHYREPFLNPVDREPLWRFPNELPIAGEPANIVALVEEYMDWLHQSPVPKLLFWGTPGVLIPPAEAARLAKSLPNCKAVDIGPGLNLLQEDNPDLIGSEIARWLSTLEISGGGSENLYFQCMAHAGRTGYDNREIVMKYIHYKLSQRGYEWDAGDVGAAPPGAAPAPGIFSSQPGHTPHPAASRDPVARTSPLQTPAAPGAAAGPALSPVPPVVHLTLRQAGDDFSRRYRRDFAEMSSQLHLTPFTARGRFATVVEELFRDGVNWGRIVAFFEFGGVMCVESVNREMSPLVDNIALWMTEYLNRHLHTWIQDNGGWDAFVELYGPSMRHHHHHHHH
For each record, check the reported Ki: if it is below 0.09 nM write class 1, else write class 0.

**Q:** Field: below-cutoff. Rule: recorded Ki strictly less than 0.09 nM. Subject: Cc1c(N(C(=O)c2cc(-c3cc4c(cc3C(=O)N3Cc5ccccc5C[C@H]3C)CN(C(=O)c3cnc(-c5ccccc5)s3)CC4)n(C)c2C)c2ccc(O)cc2)cc(C#N)n1C
**A:** class 0

**Q:** Likewise for Cc1c(N(C(=O)c2cc(-c3cc4c(cc3C(=O)N3Cc5ccccc5C[C@H]3C)CN(C(=O)Cc3ccc(OCCN5CCN6CCOC[C@@H]6C5)cc3)CC4)n(C)c2C)c2ccc(O)cc2)cc(C#N)n1C ?
**A:** class 0

**Q:** Likewise for Cc1c(N(C(=O)c2cc(-c3cc4c(cc3C(=O)N3Cc5ccccc5C[C@H]3CN3CCCC3)CN(C(=O)Cc3ccc(OCCC5CCOCC5)cc3)CC4)n(C)c2C)c2ccc(O)cc2)cc(C#N)n1C ?
**A:** class 1

**Q:** Likewise for Cc1c(N(C(=O)c2cc(-c3cc4c(cc3C(=O)N3Cc5ccccc5C[C@H]3C)CN(C(=O)Cc3ccc(OCCN5CCOCC5)cc3)CC4)n(C)c2C)c2ccccc2)cnn1C(F)F ?
**A:** class 1

**Q:** Likewise for COc1ncc(N(C(=O)c2cc(-c3cc4c(cc3C(=O)N3Cc5ccccc5C[C@H]3C)CN(C(=O)Cc3ccc(OCCN5CCOCC5)cc3F)CC4)n(C)c2C)c2ccccc2)cc1C#N ?
**A:** class 1

**Q:** Likewise for COCCn1c(C#N)cc(N(C(=O)c2cc(-c3cc4c(cc3C(=O)N3Cc5ccccc5C[C@H]3C)CN(C(=O)Cc3ccc(OCCN5CCOCC5)cc3)CC4)n(C)c2C)c2ccc(O)cc2)c1C ?
**A:** class 1

**Q:** Likewise for Cc1c(N(C(=O)c2cc(-c3cc4c(cc3C(=O)N3Cc5ccccc5C[C@H]3C)CN(Cc3cc5ccccc5cn3)CC4)n(C)c2C)c2ccc(O)cc2)cc(C#N)n1C ?
**A:** class 0

**Q:** Likewise for Cc1c(N(C(=O)c2cc(-c3cc4c(cc3C(=O)N3Cc5ccccc5C[C@H]3CN3CCCCC3)CN(C(=O)Cc3ccc(OCCN5CCC(F)CC5)cc3)CC4)n(C)c2C)c2ccc(O)cc2)cc(C#N)n1C ?
**A:** class 1

**Q:** Likewise for Cc1c(N(C(=O)c2cc(-c3cc4c(cc3C(=O)N3Cc5ccccc5C[C@H]3CN3CCCCC3)CN(C(=O)Cc3ccc(OCCN5CCOC(C)C5)cc3F)CC4)n(C)c2C)c2ccc(O)cc2)cc(C#N)n1C (single isomer, unassigned) [Example 108] ?
**A:** class 1

###

molecular target: BCL2 D103Y (Homo sapiens, UniProt P10415, D103Y); assay: TR-FRET competitive binding assay, BCL2 D103Y; conditions: Ki determined from IC50, read-out: TR_FRET EKI_Bcl2 D103Y
Please provide measured Ki for the entries that follow.
The figure you give is taken to be in nM; do not add the unit.

**Q:** Can you look up Ki on BCL2 D103Y (Homo sapiens, UniProt P10415, D103Y) for Cc1c(N(C(=O)c2cc(-c3cc4c(cc3C(=O)N3Cc5ccccc5C[C@H]3CN3CCCCC3)CN(C(=O)Cc3ccc(OCCN(C)C5CC5)cc3)CC4)n(C)c2C)c2ccc(O)cc2)cc(C#N)n1C ?
**A:** 0.21

**Q:** Likewise for Cc1c(C(=O)N(c2ccc(O)cc2)c2cc(C#N)n(C3CC3)c2C)cc(-c2cc3c(cc2C(=O)N2Cc4ccccc4C[C@H]2C)CN(C(=O)Cc2ccc(OCCN4CCOCC4)cc2)CC3)n1C ?
**A:** 0.68

**Q:** Likewise for COc1ccc(N(C(=O)c2cc(-c3cc4c(cc3C(=O)N3Cc5ccccc5C[C@H]3C)CN(C(=O)Cc3ccc(OCCN5CCOCC5)cc3F)CC4)n(C)c2C)c2ccccc2)cn1 ?
**A:** 0.11

###

experiment: Pharmacokinetics in SCID mice; assay type: in vivo; conditions: 25 mg/kg IV bolus, concentration at the end of bolus administration
endpoint-name: PK parameters Cinf (µM)
The figure you give is taken to be in µM; do not add the unit.

**Q:** Fill in: PK parameters Cinf of COc1ccc(CC(=O)N2CCc3cc(-c4cc(C(=O)N(c5ccc(O)cc5)c5cc(C#N)n(C)c5C)c(C)n4C)c(C(=O)N4Cc5ccccc5C[C@H]4CN4CCCCC4)cc3C2)c(F)c1 is ___
**A:** 8.4

**Q:** Likewise for Cc1c(N(C(=O)c2cc(-c3cc4c(cc3C(=O)N3Cc5ccccc5C[C@H]3CN3CCCCC3)CN(C(=O)Cc3ccc(OCCN5CCOCC5)cc3F)CC4)n(C)c2C)c2ccc(O)cc2)cc(C#N)n1C ?
**A:** 15.4

**Q:** Likewise for Cc1c(N(C(=O)c2cc(-c3cc4c(cc3C(=O)N3Cc5ccccc5C[C@H]3CN3CCOCC3)CN(C(=O)Cc3ccc(OCCC5CCOCC5)cc3F)CC4)n(C)c2C)c2ccc(O)cc2)cc(C#N)n1C ?
**A:** 11.4

**Q:** Likewise for Cc1c(N(C(=O)c2cc(-c3cc4c(cc3C(=O)N3Cc5ccccc5C[C@H]3C)CN(C(=O)Cc3ccc(OCCC5CCOCC5)cc3)CC4)n(C)c2C)c2ccc(O)cc2)cc(C#N)n1C ?
**A:** 12.2

**Q:** Likewise for COC[C@@H]1Cc2ccccc2CN1C(=O)c1cc2c(cc1-c1cc(C(=O)N(c3ccc(O)cc3)c3cc(C#N)n(C)c3C)c(C)n1C)CCN(C(=O)Cc1ccc(OCCC3CCOCC3)cc1F)C2 ?
**A:** 18.0
